Some compounds, each annotated with its measured IC50.
Target: CDK2/Cyclin E1 (Homo sapiens)
Assay: CDK2/Cyclin E1 Caliper LabChip EZ Reader mobility shift assay
Type: biochemical
Design: purchased Eurofins 14-475
Details: read-out: Caliper Assay (CDK2/CCNE1): IC50

Record excerpt, results attached:
[[record]]
compound = "CNC(=O)[C@@H](NC(=O)[C@H]1CN(C(=O)c2cnc(C(F)(F)F)s2)CC12CN(C(=O)[C@H]1CC1(C)C)C2)[C@@H](C)OCC1CCCCC1 [I-161B]"
test_result = "> 10000 nM"

[[record]]
compound = "Cc1n[nH]c(C(=O)N2C[C@@H](C(=O)N[C@H](C(=O)N3CCCCC3)[C@@H](C)OCC3CCCCC3)C3(C2)CN(C(=O)[C@H]2CC2(C)C)C3)n1 [I-241]"
test_result = "1000 to 10000 nM"

[[record]]
compound = "CC1(C)C[C@@H]1C(=O)N1CC2(CN(C(=O)c3cnn(Cc4ccccc4)c3)C[C@H]2C(=O)N[C@H]2CCN(C3CC3)C2=O)C1 [I-243]"
test_result = "> 10000 nM"

[[record]]
compound = "CNC(=O)[C@@H](NC(=O)[C@@H]1CN(C(=O)c2cnn(C)c2)CC12CN(C(=O)[C@H]1CC1(C)C)C2)[C@@H](C)OCc1ccccc1 [I-33A]"
test_result = "100 to 1000 nM"

[[record]]
compound = "C[C@@H](OCC1CCC(F)(F)CC1)[C@H](NC(=O)[C@@H]1CN(C(=O)c2cnn(Cc3ccc(F)cc3)c2)CC12CN(C(=O)C1(C(F)(F)F)CC1)C2)C(=O)N1CCC(F)(F)CC1 [I-190A]"
test_result = "10 to 100 nM"


Quick check: IC50 of COC[C@H]1CCCN(C(=O)[C@@H](NC(=O)[C@H]2CN(C(=O)c3cncs3)CC23CN(C(=O)[C@H]2CC2(C)C)C3)[C@@H](C)OCC2CCCCC2)C1 [I-196B] ? ≤ 10 nM

* * *

Molecular target: CDK2/Cyclin E1 (Homo sapiens, UniProt P24941)
Assay: CDK2/Cyclin E1 Caliper LabChip EZ Reader mobility shift assay
Format: biochemical
Set-up: purchased Eurofins 14-475
Conditions: read-out: Caliper Assay (CDK2/CCNE1): IC50
observed.property: IC50

Record excerpt, results attached:
[[record]]
molecule = "CNC(=O)[C@@H](NC(=O)C1CN(C(=O)c2cnn(C)c2)CC12CN(C(=O)C1CC1(C)C)C2)[C@@H](C)OCc1ccccc1 (stereo partly drawn)"
test_result = "1000 to 10000 nM"

[[record]]
molecule = "CNC(=O)[C@@H](NC(=O)[C@@H]1CN(C(=O)c2cnn(Cc3ccccc3)c2)CC12CN(C(=O)[C@H]1CC1(C)C)C2)[C@@H](C)N(C)CC1CCCCC1"
test_result = "1000 to 10000 nM"

[[record]]
molecule = "COC[C@H]1CCCN(C(=O)[C@@H](NC(=O)[C@@H]2CN(C(=O)c3cncs3)CC23CN(C(=O)[C@H]2CC2(C)C)C3)[C@@H](C)OCc2ccc(F)cc2)C1"
test_result = "≤ 10 nM"

[[record]]
molecule = "CNC(=O)[C@@H](NC(=O)[C@@H]1CN(C(=O)c2cncs2)CC12CN(C(=O)C(C)(C)C)C2)[C@@H](C)OCC1CCCCC1 [I-186A]"
test_result = "10 to 100 nM"

[[record]]
molecule = "CNC(=O)[C@@H](NC(=O)[C@@H]1CN(C(=O)c2cnn(Cc3ccccc3)c2)CC12CN(C(=O)CC1CC1)C2)[C@@H](C)OCc1ccccc1"
test_result = "1000 to 10000 nM"


Quick check: IC50 of `Cc1ccc(CNC(=O)[C@@H]2CN(C(=O)c3cnn(Cc4ccccn4)c3)CC23CN(C(=O)[C@H]2CC2(C)C)C3)nn1` ? > 10000 nM

Quick check: IC50 of C[C@@H](OCC1CCC(F)(F)CC1)[C@H](NC(=O)[C@H]1CN(C(=O)c2cn[nH]c2)CC12CN(C(=O)C1(C(F)(F)F)CC1)C2)C(=O)N1CCC(F)(F)CC1 [I-188B] ? 1000 to 10000 nM
